Cited source: patent US9469615B2

System Name: hCRTH2 (Homo sapiens, UniProt Q9Y5Y4)
Construct: expressed in transfected cells; host or cells: HEK (human embryonic kidney) cells expressing hCRTH2; membrane preparation
Sequence (Q9Y5Y4 whole entry): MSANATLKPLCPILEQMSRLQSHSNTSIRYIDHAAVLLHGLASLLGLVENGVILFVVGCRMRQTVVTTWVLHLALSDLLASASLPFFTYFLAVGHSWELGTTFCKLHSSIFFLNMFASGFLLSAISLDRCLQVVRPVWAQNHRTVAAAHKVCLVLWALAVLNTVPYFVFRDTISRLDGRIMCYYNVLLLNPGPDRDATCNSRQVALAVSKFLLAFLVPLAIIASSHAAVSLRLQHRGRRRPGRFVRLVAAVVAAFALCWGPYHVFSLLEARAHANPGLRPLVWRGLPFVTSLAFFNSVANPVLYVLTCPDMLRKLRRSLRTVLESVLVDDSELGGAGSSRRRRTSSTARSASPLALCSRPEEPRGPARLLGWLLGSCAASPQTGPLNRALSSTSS
Test Description: Radioligand binding assay ([3H]PGD2 competition, HEK-hCRTH2 membranes)
Recorded Conditions: [3H]PGD2 competition, Table B
Reported Property: Ki

Reference set, count: 3
{"Query Smiles": "Cc1ccccc1N1CCN(C(=O)c2ccc3nc(-c4ccc(F)cc4)c(CCCCC(=O)O)nc3c2)CC1", "Recorded Value": "2.1 to 20 nM"}
{"Query Smiles": "O=C(O)CCCCc1nc2cc(C(=O)N3CCN(C(=O)c4ccco4)CC3)ccc2nc1-c1ccc(Cl)cc1", "Recorded Value": "2.1 to 20 nM"}
{"Query Smiles": "O=C(O)CCCCc1nc2cc(C(=O)N3Cc4ccccc4C3)ccc2nc1-c1ccc(Cl)cc1", "Recorded Value": "0.1 to 2 nM"}

Moving on to another compound below.
The reported value for "Cc1cc2nc(-c3ccccc3)c(CCCCC(=O)O)nc2cc1C(=O)N[C@@H]1CCCc2ccccc21" in terms of Ki is 201 to 700 nM
